# TESTED SYSTEM: protocollagen-proline hydroxylase (Gallus gallus)
# Construct: partially purified enzyme preparation obtained from chick embryos; from tissue; host or cells: chick embryos (partially purified enzyme)
# TEST DETAILS: Inhibitory activity of protocollagen-proline hydroxylase
# Assay type: biochemical, chick embryos
# TEST SETTINGS: 2.5 μM
Exercise: for every item that follows, state its recorded inhibition at 2.5 µM.

Ask: # get_value(readout='inhibition at 2.5 µM', item= COC1=C(OC)C(=O)C(CCOc2ccc(CC(=O)O)cc2)=C(C)C1=O )
Result: 64%

Ask: COC1=C(OC)C(=O)C(COc2ccc(C(C)C(=O)O)cc2)=C(C)C1=O (centres unmarked) ?
Result: 70%

Ask: COC1=C(OC)C(=O)C(/C=C/C(=O)O)=C(C)C1=O [drawing 25] ?
Result: 0%

Ask: COC1=C(OC)C(=O)C(/C=C/C(C)=O)=C(C)C1=O [drawing 26] ?
Result: 51%

Ask: COC1=C(OC)C(=O)C(CCOc2ccc(/C=C/C(=O)O)cc2)=C(C)C1=O ?
Result: 62%

====

# TESTED SYSTEM: protocollagen-proline hydroxylase (Gallus gallus, UniProt P16924)
# Construct: partially purified enzyme preparation obtained from chick embryos; from tissue; host or cells: chick embryos (partially purified enzyme)
# Sequence (P16924 whole entry): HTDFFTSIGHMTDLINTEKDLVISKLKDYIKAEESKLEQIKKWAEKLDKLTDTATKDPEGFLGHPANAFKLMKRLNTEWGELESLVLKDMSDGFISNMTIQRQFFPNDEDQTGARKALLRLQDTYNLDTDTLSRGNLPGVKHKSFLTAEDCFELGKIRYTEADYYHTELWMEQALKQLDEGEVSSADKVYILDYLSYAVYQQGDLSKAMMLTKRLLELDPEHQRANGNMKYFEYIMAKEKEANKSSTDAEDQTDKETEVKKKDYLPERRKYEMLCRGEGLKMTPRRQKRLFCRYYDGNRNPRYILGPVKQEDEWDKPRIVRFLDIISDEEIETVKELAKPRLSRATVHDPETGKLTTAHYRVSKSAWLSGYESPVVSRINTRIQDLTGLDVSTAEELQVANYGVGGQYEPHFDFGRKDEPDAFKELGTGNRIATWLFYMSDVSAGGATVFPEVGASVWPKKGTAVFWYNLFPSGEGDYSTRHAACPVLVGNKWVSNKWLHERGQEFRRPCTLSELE
# Sequence (P09102 23-515 partner): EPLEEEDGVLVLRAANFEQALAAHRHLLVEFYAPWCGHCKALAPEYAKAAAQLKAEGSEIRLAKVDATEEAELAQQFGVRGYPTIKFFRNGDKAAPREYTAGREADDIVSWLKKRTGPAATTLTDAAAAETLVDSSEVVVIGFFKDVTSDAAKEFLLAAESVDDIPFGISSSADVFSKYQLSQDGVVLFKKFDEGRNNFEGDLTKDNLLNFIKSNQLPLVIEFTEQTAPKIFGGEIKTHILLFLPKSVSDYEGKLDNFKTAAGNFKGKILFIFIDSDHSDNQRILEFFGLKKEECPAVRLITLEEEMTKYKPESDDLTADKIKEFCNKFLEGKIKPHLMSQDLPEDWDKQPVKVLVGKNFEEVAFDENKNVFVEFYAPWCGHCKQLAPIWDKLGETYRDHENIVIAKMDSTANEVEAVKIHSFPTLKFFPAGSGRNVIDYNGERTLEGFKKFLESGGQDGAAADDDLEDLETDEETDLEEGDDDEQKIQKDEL
# TEST DETAILS: Inhibitory activity of protocollagen-proline hydroxylase
# Type: biochemical, chick embryos
# TEST SETTINGS: 50 μM
PARAMETER: inhibition at 50 µM (%)
Expressed in %, but write only the number.

Ask: # get_value(readout='inhibition at 50 µM', item= COC1=C(OC)C(=O)C(CCOc2ccc(/C=C/C(=O)O)cc2)=C(C)C1=O )
Result: 100

Ask: COC1=C(OC)C(=O)C(/C=C/C(C)=O)=C(C)C1=O [drawing 26] ?
Result: 92

Ask: COC1=C(OC)C(=O)C(c2nc3cc(C(C)C(=O)O)ccc3o2)=C(C)C1=O (centres unmarked) ?
Result: 84

Ask: COC1=C(OC)C(=O)C(CCOc2ccc(CC(=O)O)cc2)=C(C)C1=O ?
Result: 100

Ask: COC1=C(OC)C(=O)C(CC=C(C)COc2ccc(CC(=O)O)cc2)=C(C)C1=O [drawing 20] ?
Result: 92

Ask: COC1=C(OC)C(=O)C(COc2ccc(C(C)C(=O)O)cc2)=C(C)C1=O (centres unmarked) ?
Result: 100

Ask: COC1=C(OC)C(=O)C(/C=C/C(=O)O)=C(C)C1=O [drawing 25] ?
Result: 68

Ask: COC(=O)/C=C/C=C/C=C/C=C/C1=C(C)C(=O)C(OC)=C(OC)C1=O ?
Result: 76

====

# TESTED SYSTEM: protocollagen-proline hydroxylase (Gallus gallus)
# Construct: partially purified enzyme preparation obtained from chick embryos; from tissue; host or cells: chick embryos (partially purified enzyme)
# TEST DETAILS: Inhibitory activity of protocollagen-proline hydroxylase
# Type: biochemical, chick embryos
# TEST SETTINGS: 5 μM
PARAMETER: inhibition at 5 µM (%)
Expressed in %, but write only the number.

Ask: # get_value(readout='inhibition at 5 µM', item= COC1=C(OC)C(=O)C(CCOc2ccc(CC(=O)O)cc2)=C(C)C1=O )
Result: 74

Ask: COC1=C(OC)C(=O)C(COc2ccc(C(C)C(=O)O)cc2)=C(C)C1=O (centres unmarked) ?
Result: 75

Ask: COC1=C(OC)C(=O)C(/C=C/C(=O)O)=C(C)C1=O [drawing 25] ?
Result: 22

Ask: COC1=C(OC)C(=O)C(/C=C/C(C)=O)=C(C)C1=O [drawing 26] ?
Result: 72

Ask: COC1=C(OC)C(=O)C(CCOc2ccc(/C=C/C(=O)O)cc2)=C(C)C1=O ?
Result: 72

====

# TESTED SYSTEM: 5-lipoxygenase (Rattus norvegicus)
# Construct: endogenous in cells; host or cells: RBL-1
# Sequence (P12527 whole entry): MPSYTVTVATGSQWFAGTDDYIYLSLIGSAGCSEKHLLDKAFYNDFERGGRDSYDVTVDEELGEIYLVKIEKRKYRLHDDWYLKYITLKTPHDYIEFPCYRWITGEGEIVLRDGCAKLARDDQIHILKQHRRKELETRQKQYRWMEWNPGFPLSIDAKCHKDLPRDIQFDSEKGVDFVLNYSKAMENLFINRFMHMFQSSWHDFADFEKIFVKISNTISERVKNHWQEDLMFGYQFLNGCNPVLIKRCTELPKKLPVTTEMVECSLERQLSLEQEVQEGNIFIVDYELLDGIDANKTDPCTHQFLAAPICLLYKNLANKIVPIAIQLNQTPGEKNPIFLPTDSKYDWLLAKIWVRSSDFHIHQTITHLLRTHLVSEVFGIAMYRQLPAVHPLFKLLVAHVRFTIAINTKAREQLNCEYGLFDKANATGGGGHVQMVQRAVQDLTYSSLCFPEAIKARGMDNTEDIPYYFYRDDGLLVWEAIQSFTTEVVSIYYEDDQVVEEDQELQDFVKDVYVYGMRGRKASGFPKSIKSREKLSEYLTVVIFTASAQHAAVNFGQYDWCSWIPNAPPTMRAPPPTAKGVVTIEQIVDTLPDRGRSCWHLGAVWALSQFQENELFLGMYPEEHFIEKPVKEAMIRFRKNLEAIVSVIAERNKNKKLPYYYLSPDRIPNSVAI
# TEST DETAILS: Inhibition of 5-lipoxygenase activity in RBL-1 cells (5-HETE production)
# Assay type: cell-based
# TEST SETTINGS: 1 μM, 37° C., 20 minutes, arachidonic acid + A-23187
# Procedure: 10^7 RBL-1 cells (rat basophilic leukemia cells) are suspended in 0.5 ml of MCM (mast cell medium), and, then, a test solution (0.5 ml of MCM, 50 μg of arachidonic acid, 10 μg of A-23187 and 1 μM or 10 μM of the quinone compound) is added. The reaction is conducted at 37° C. for 20 minutes. After completion of the reaction, 4 ml of ethanol including 1,4-dimethoxy-2-methyl-3-(3-methoxypropyl)naphthalene are added (0.5 μg/ml) are added as an internal reference. […]
PARAMETER: inhibition at 1 µM
Note: state the figure and append the unit.

Ask: # get_value(readout='inhibition at 1 µM', item= COC1=C(OC)C(=O)C(COc2ccc(/C=C/C(=O)O)cc2)=C(C)C1=O [drawing 37] )
Result: 73.9%

Ask: COC1=C(OC)C(=O)C(CC=C(C)COc2ccc(/C=C/C(=O)O)cc2)=C(C)C1=O ?
Result: 76.6%

Ask: COC1=C(OC)C(=O)C(CCCCOc2ccc(/C=C/C(=O)O)cc2)=C(C)C1=O ?
Result: 72%

Ask: COC1=C(C)C(=O)C(COc2ccc(CC(=O)O)cc2)=C(C)C1=O ?
Result: 70.1%

Ask: CC1=C(C)C(=O)C(c2nc3cc(C(C)C(=O)O)ccc3o2)=C(C)C1=O (centres unmarked) ?
Result: 63.5%

Ask: CCCCCC#CCC#CCC#CCC#CCCCC(=O)O [ETYA, Eicosatetraynoic acid, reference compound] ?
Result: 35.9%

Ask: COC1=C(OC)C(=O)C(CC=C(C)COc2ccc(CC(=O)O)cc2)=C(C)C1=O [drawing 38] ?
Result: 72.2%

Ask: NC1=NN(c2cccc(C(F)(F)F)c2)CC1 [BW755C, reference compound] ?
Result: 21.8%

====

Exercise: for every item that follows, state its recorded Collagen content of uterus.
# Tested on: collagen biosynthesis
# TEST DETAILS: Inhibitory activity of collagen biosynthesis (collagen content of the uterus, with 17β-estradiol)
# Format: in vivo, SD strain rats (female, 3 weeks old)
# TEST SETTINGS: 17β-estradiol + compound, 0.2 mg/kg i.p. once a day for 6 days
Expressed in mg, but write only the number.

Ask: # get_value(readout='Collagen content of uterus', item= COC1=C(OC)C(=O)C(/C=C/C(C)=O)=C(C)C1=O [drawing 31] )
Result: 2.98

Ask: COC1=C(OC)C(=O)C(CCCCCCCCCC(=O)N[C@@H](CCCNC(=N)N)C(=O)O)=C(C)C1=O ?
Result: 2.86

Ask: COC1=C(OC)C(=O)C(COc2ccc(/C=C/C(=O)O)cc2)=C(C)C1=O [drawing 32] ?
Result: 2.77

Ask: COC1=C(OC)C(=O)C(/C=C/C(=O)O)=C(C)C1=O [drawing 30] ?
Result: 2.53

====

# TESTED SYSTEM: protocollagen-proline hydroxylase (Gallus gallus, UniProt P16924)
# Construct: partially purified enzyme preparation obtained from chick embryos; from tissue; host or cells: chick embryos (partially purified enzyme)
# TEST DETAILS: Inhibitory activity of protocollagen-proline hydroxylase
# Type: biochemical, chick embryos
# TEST SETTINGS: 20 μM
Where a name gives a salt, the structure may show the parent alone.
PARAMETER: inhibition at 20 µM (%)
Expressed in %, but write only the number.

Ask: # get_value(readout='inhibition at 20 µM', item= COC1=C(OC)C(=O)C(CCCCCCCCCC(=O)OC[C@H]2OC(O)[C@H](NC(C)=O)[C@@H](O[C@H](C)C(=O)O)[C@@H]2O)=C(C)C1=O (stereo partly shown) )
Result: 32

Ask: COC1=C(OC)C(=O)C(CCC(=O)N[C@@H](CCCNC(=N)N)C(=O)O)=C(C)C1=O [m:0, n:2, Z:COArg (salt of acetic acid)] ?
Result: 56

Ask: COC1=C(OC)C(=O)C(CCCCCCCCCC(=O)N[C@H]2C(O)O[C@H](CO)[C@@H](O)[C@@H]2O)=C(C)C1=O (stereo partly shown) ?
Result: 52

Ask: COC1=C(OC)C(=O)C(/C=C/C(=O)O)=C(C)C1=O [drawing 25] ?
Result: 46

====

# TESTED SYSTEM: protocollagen-proline hydroxylase (Gallus gallus, UniProt P16924)
# Construct: partially purified enzyme preparation obtained from chick embryos; from tissue; host or cells: chick embryos (partially purified enzyme)
# TEST DETAILS: Inhibitory activity of protocollagen-proline hydroxylase
# Type: biochemical, chick embryos
# TEST SETTINGS: 20 μM
# Description: Determination of this inhibitory activity was made by the method of R. E. Rhoads et al. [Methods in Enzymology XVII B, 306 (1971)] using a partially purified enzyme preparation obtained from chick embryos in accordance with the methods of K. I. Kivirriko et al. and J. Halme et al. [J. Biol, Chem. 242, 4007 (1967) and Biochim. Biophys. Acta 198, 460 (1967)] and, as a substrate, (Pro-Pro-Gly)5.4H2 O[prepared by the Protein Research Foundation, Osaka]. […]
Where a name gives a salt, the structure may show the parent alone.
Class yes: inhibition at 20 µM at least 40%. Class no: inhibition at 20 µM below 40%.

Ask: Is the recorded value of inhibition at 20 µM equal to or greater than 40% for this compound? COC1=C(OC)C(=O)C(c2nc3cc(C(C)C(=O)O)ccc3o2)=C(C)C1=O (stereo not shown)
Result: yes

Ask: COC1=C(OC)C(=O)C(CC=C(C)COc2ccc(CC(=O)O)cc2)=C(C)C1=O [drawing 20] ?
Result: yes

Ask: COC1=C(OC)C(=O)C(CCC(=O)N[C@@H](CCC(=O)O)C(=O)O)=C(C)C1=O ?
Result: no

Ask: COC1=C(OC)C(=O)C(CCC(=O)N[C@@H](C)C(=O)O)=C(C)C1=O ?
Result: no

Ask: COC1=C(OC)C(=O)C(CCCCCCCCCC(=O)N[C@@H](Cc2c[nH]cn2)C(=O)O)=C(C)C1=O ?
Result: yes

Ask: COC1=C(OC)C(=O)C(CCCCCCCCCC(=O)N[C@@H](CCCNC(=N)N)C(=O)O)=C(C)C1=O [m:0, n:9, Z:COArg (salt of acetic acid)] ?
Result: yes

Ask: COC1=C(OC)C(=O)C(CCCCCCCCCC(=O)N[C@H](Cc2ccccc2)C(=O)O)=C(C)C1=O ?
Result: no
